- system tested: HLA-A2 on T2 cells pulsed with URB1: 1853-1861 peptide (human)
- method notes: flow cytometry, 10 ug/ml, pulsed T2 cells
# ratio of MFI, pulsed to unpulsed listing for each entry below

{"columns": ["binder", "ratio of MFI, pulsed to unpulsed / ratio"],
 "data": [
  ["mAb29814P (antibody, human IgG4 S228P, kappa, V domains shown) VH: QVQLVESGGGVVQPGRSLRLSCVASGFTFSSYGMHWVRQAPGKGLEWVAVIWYVGSNKYYGDSVKGRFTISRDNSKNTLYLQMNSLRAEDTAVYYCARDLIADRPGYYYNGMDVWGQGTTVTVSS VL: EIVMTQSPVTLFVSPGERATLSCRASQSVNTNLAWYQQQPGQAPRLLIHGASTRPTGVPARFSGSGSGTEFTLIISSLQSEDFAVYYCQQYNNWPPWTFGQGTKVEIKR", 7.9],
  ["mAb24959N (antibody, human IgG4 S228P, kappa, V domains shown) VH: QLQLLESGPGLVKPSETLSLICTVSGGSIRGSSYYWGWIRQPPEKGLEWIGSIYSSGSTYYNPSLKSRVTISADTSKNQFSLKLSSVTAADTAVYYCARHGGITAVQLEFDPWGQGTLVTVSS VL: DIQMTQSPSSLSASVGDRVTITCQASQDISNYLKWYQQKPGKAPKILIHDASNLEIGVPSRFSGSGAGTDFIFTISSLQPEDIGTYYCQQYDNLPITFGQGTRLEIKR", 0.6],
  ["mAb24958N (antibody, human IgG4 S228P, kappa, V domains shown) VH: QVQLQESGPGLVKPSQTLSLTCTVSGGSIISDGYYWSWIRQHPGKGLEWIGYVDYSGNTYYNPSLKSRIIMSVDTSKNQFSLKLTSVTAADTAVYFCVREGPLRDAFEIWGQGTMVTVSS VL: DIQMTQSPSSLSASVGDRVTITCRTSQSISRYLNWYQQKPGKAPKLLIFAASSLQSGVPSRFSGSGSGADFTLTISSLQPEDFATYYCQQSYSTPPITFGQGTRLEIKR", 0.6],
  ["mAb28042P (antibody, human IgG4 S228P, kappa, V domains shown) VH: QLQLQESDPGLVKPSETLSLTCTVSGDSIRNSNYYWGWIRQPPGKGLEWIGSIYFSGRTYFNPSLKSRVTIPVDMSKNQFSLMLNSVTATDTAVYYCARHGGITAAGGFFDYWGQGTLVTVSS VL: DIQMTQSPSSLSASVGDRVTITCQASQDISNYLNWYQQKPGKAPNVLIYDASNLETGVPSRFSGSGSGTDFTFTISSLQPEDFATYYCQQNDNLPLTFGGGTKVEIKR", 0.5],
  ["mAb28105P (antibody, human IgG4 S228P, kappa, V domains shown) VH: EVQLVESGGGVVQPGGSLRLSCEASGFIFDDYAMHWVRQAPGKGLEWVSLISGDGDIIYYADSVKGRFTISRDNSKNSLYLQMNSLIIEDTALYYCAKDWVFGVVMTHYWYFGLDVWGQGTTVTVSS VL: DIQMTQSPSSLSASEGDRVTITCRASQSISTYLNWYQQKPGKAPKLLIYGASSLQSGVPSRFSGSGSGTDFTLTISSLQPEDFATYYCQQSYSTPPITFGQGTKVEIKR", 0.6],
  ["mAb28128P (antibody, human IgG4 S228P, kappa, V domains shown) VH: EVQLVESGGGVVQPGGSLRLSCAASGFIFDDYAMHWVRQVPGKGLEWISLSSGGGGGTYYADPVKGRFTISRDNSKNSLHLQMNSLRAEDTASYYCAKDMVFGVVTPDFFFAMDVWGQGTTVTVSS VL: DIQMTQSPSSLSASVGDRVTITCRASQSISTYLNWYQQKPGKAPKLLIYGASSLQRGVPSRFSGSGSGTDFTLTISSLQPEDFATYYCQQTYSTPPITFGQGTRLEIKR", 0.6]
]}
